Values were extracted from patent US20260258039A1.

- tgt: ER (Homo sapiens, UniProt P03372)
- Construct: T47D breast cancer cells were subcultured in cell culture medium; endogenous in cells; host or cells: T47D breast cancer cells
- Sequence (P03372 1-595): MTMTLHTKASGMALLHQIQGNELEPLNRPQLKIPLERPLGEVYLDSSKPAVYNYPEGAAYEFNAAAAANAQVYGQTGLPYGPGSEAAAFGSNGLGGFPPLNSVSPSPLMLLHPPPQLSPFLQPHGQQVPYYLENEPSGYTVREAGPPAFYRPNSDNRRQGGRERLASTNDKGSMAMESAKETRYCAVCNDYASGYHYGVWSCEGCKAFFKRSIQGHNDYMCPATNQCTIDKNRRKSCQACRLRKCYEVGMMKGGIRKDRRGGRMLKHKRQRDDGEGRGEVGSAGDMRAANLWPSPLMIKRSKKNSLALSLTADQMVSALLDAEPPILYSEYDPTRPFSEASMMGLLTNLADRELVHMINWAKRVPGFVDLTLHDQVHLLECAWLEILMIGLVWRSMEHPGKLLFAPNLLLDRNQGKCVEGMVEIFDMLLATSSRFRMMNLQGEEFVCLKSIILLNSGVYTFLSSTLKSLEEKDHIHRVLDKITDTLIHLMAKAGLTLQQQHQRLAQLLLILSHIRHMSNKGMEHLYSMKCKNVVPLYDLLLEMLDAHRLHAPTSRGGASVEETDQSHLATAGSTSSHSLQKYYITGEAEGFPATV
- assayProcedure: Degradation activities on ER (ELISA) in T47D breast cancer cells
- Assay type: cell-based
- testSettings: T47D cells, 24 h, ELISA; concentration required to degrade 50% of the target protein
endpointName: DC50

Example results:
O=C1CCC(N2Cc3cc(N4CC5(CCN(CC6CCN(c7ccc([C@@H]8c9ccc(O)cc9OC[C@@H]8c8ccccc8F)cc7)CC6)CC5)C4)ccc3C2=O)C(=O)N1 (some centres unmarked) [Example 89] ... < 10 nM
O=C1CC[C@H](N2Cc3cc(N4CC5(CCN(CC6CCN(c7ccc([C@@H]8c9ccc(O)cc9OC[C@@H]8c8c(F)cccc8F)cc7F)CC6)CC5)C4)ccc3C2=O)C(=O)N1 ... < 10 nM
O=C1CCC(N2Cc3cc(N4CCC5(CCN(CC6CCN(c7ccc([C@@H]8c9ccc(O)cc9CC[C@@H]8c8ccccc8)cc7)CC6)C5)C4)ccc3C2=O)C(=O)N1 (some centres unmarked) ... > 100 nM
O=C1CCC(N2Cc3cc(N4CC5(CCN(CC6CCN(c7c(F)cc([C@H]8c9ccc(O)cc9OC[C@H]8c8ccccc8F)cc7F)CC6)CC5)C4)ccc3C2=O)C(=O)N1 (some centres unmarked) ... > 100 nM
O=C1CCC(N2Cc3cc(N4CCC(N5CC6(CCN(c7ccc([C@@H]8c9ccc(O)cc9CC[C@@H]8c8ccccc8)cc7F)CC6)C5)CC4)ccc3C2=O)C(=O)N1 (some centres unmarked) ... < 10 nM

Report DC50 for O=C1CC[C@H](N2Cc3cc(N4CC5(CCN(CC6CCN(c7c(F)cc([C@@H]8c9ccc(O)cc9OC[C@@H]8c8c(F)cccc8F)cc7F)CC6)CC5)C4)ccc3C2=O)C(=O)N1 please.
< 10 nM

Report DC50 for O=C1CCC(N2C(=O)c3ccc(N4CC5(CN(CC6CCN(c7ccc([C@@H]8c9ccc(O)cc9CC[C@@H]8c8ccccc8)cc7)CC6)C5)C4)cc3C2=O)C(=O)N1 (some centres unmarked) [Example 3] please.
> 100 nM

Report DC50 for O=C1CCC(N2Cc3cc(N4CCC(N5CC6(CCN(c7ccc([C@@H]8c9ccc(O)cc9OC[C@@H]8c8ccccc8F)cc7F)CC6)C5)CC4)ccc3C2=O)C(=O)N1 (some centres unmarked) please.
< 10 nM

Report DC50 for O=C1CCC(N2Cc3cc(N4CC5(CCN(CC6CCN(c7c(F)cc([C@@H]8c9ccc(O)cc9OC[C@@H]8c8c(F)cccc8F)cc7F)CC6)CC5)C4)ccc3C2=O)C(=O)N1 (some centres unmarked) [Example 40] please.
< 10 nM

Report DC50 for O=C1CCC(N2Cc3cc(N4CC5(CCN(CC6CCN(c7ccc([C@@H]8c9ccc(O)cc9OC[C@@H]8c8ccccc8)cc7)CC6)CC5)C4)ccc3C2=O)C(=O)N1 (some centres unmarked) please.
< 10 nM

Report DC50 for O=C1CCC(N2Cc3cc(N4CC5(CCN(CC6CCN(c7ccc([C@@H]8c9ccc(O)cc9OC[C@@H]8c8cccc(F)c8F)cc7F)CC6)CC5)C4)ccc3C2=O)C(=O)N1 (some centres unmarked) please.
< 10 nM
